B1: INTS4 (parent)
chain: YSSGEFSSGRKWGDDAPKEEVDTG

variants of: B1; experiment: protein stability index of a GFP-peptide fusion (GPS, HEK-293T) (PSI 1-6); higher = more stable; details: c terminus: a fixed tail appended;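 also: lentivirally expressed fusions sorted by FACS into six bins by GFP to DsRed ratio, PSI derived from sequencing read proportions per bin multiplied by bin number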
I would appreciate it if you labelled entries Satisfied when protein stability index is 3 or higher, otherwise Not satisfied.

[[record]]
mutation = "G13C"
class_assignment = "Not satisfied"

[[record]]
mutation = "Y1V"
class_assignment = "Satisfied"

[[record]]
mutation = "S8E"
class_assignment = "Satisfied"

[[record]]
mutation = "S3L"
class_assignment = "Satisfied"

[[record]]
mutation = "D22S"
class_assignment = "Not satisfied"


## Input Exam item: decide whether the reported protein stability index for "D14N" is at least 3.
## Output Not satisfied

## Input For "A16T" then?
## Output Not satisfied

## Input For "G24V" then?
## Output Not satisfied

## Input For "G9M" then?
## Output Not satisfied

## Input For "E19N" then?
## Output Not satisfied
